meta.source: paper PMC3140774

Listed compounds paired with reported fold decrease in activity against T. brucei compared with 7a
test system: bloodstream form T. brucei (strain 427); experiment: Trypanocidal assay, growth inhibition of cultured bloodstream-form T. brucei; type: cell-based, Trypanosoma brucei; details: free base; bloodstream form
Quantity: fold decrease in activity against T. brucei compared with 7a (fold)

INSERT INTO assay_data (compound, subject_of_test, recorded_measurement) VALUES
  ('C[C@@H]1NC2(C(=O)N(CC(=O)NO)C1=O)C1CC3CC(C1)CC2C3 (stereo partly shown)', 'bloodstream form T. brucei (strain 427)', 1.5),
  ('CN1CC(=O)N(CC(=O)NO)C(=O)C12C1CC3CC(C1)CC2C3 (stereo not shown)', 'bloodstream form T. brucei (strain 427)', 2.1),
  ('O=C(CN1C(=O)CNC2(CCCCCC2)C1=O)NO [10a]', 'bloodstream form T. brucei (strain 427)', 21),
  ('O=C(CN1C(=O)CNC2(CCCCCCC2)C1=O)NO', 'bloodstream form T. brucei (strain 427)', 3.3);
